# Test system: DU-145
# assay-protocol: Cytotoxicity against human DU145 cells after 72 hrs by MTT assay
# Format: functional, cell-based
# assay-setup: DU-145, 72 h
Field 'label' (enum: T / F). Set to T when IC50 is strictly under 50 µM; else F.

Example entries and their recorded answers appear below.
Ask | In plain terms, does COc1cc2ncnc(Nc3ccc(N(CCCl)CCCl)cc3)c2cc1OC come in under 50 µM for IC50?
Reply | F

Ask | Now consider COc1cc2ncnc(Nc3cccc(N(CCCl)CCCl)c3)c2cc1OC(C)=O .
Reply | T

Ask | Now consider COCCOc1cc2ncnc(Nc3ccc(N(CCCl)CCCl)cc3)c2cc1OCCOC .
Reply | F

Ask | Now consider COCCOc1cc2ncnc(Nc3ccccc3N(CCCl)CCCl)c2cc1OCCOC .
Reply | F

Ask | Now consider COc1cc2ncnc(Nc3cccc(N(CCCl)CCCl)c3)c2cc1OCCCN1CCOCC1 .
Reply | T

New cases:
Ask | In plain terms, does COc1cc2ncnc(Nc3ccc(N(CCCl)CCCl)cc3)c2cc1O come in under 50 µM for IC50?
Reply | F

Ask | Now consider COc1cc2ncnc(Nc3ccccc3N(CCCl)CCCl)c2cc1OC .
Reply | F

Ask | Now consider COCCOc1cc2ncnc(Nc3cccc(N(CCCl)CCCl)c3)c2cc1OCCOC .
Reply | F

Ask | Now consider COc1cc2ncnc(Nc3ccccc3N(CCCl)CCCl)c2cc1OC(C)=O .
Reply | F

Ask | Now consider COc1cc2ncnc(Nc3ccc(N(CCCl)CCCl)cc3)c2cc1OCCCN1CCOCC1 .
Reply | T

Ask | Now consider COc1cc2ncnc(Nc3cccc(N(CCCl)CCCl)c3)c2cc1O .
Reply | T

Ask | Now consider CNC(=O)c1cc(Oc2ccc(NC(=O)Nc3ccc(Cl)c(C(F)(F)F)c3)cc2)ccn1 [SORAFENIB] .
Reply | T

Ask | Now consider COc1cc2ncnc(Nc3cccc(N(CCCl)CCCl)c3)c2cc1OC .
Reply | F
